- Protocol Summary: Half life in mouse plasma assessed as remaining peptide antagonistic activity for inhibition of binding of alkaline phosphatase-fused ephrin-A5 to immobilized EphA4 Fc incubated for 3 days by ELISA
- Format: cell-free
Readout Type: half-life

# example entries with known answers
CC(C)[C@@H]1NC(=O)[C@@H](NC(=O)[C@H](Cc2ccc(O)cc2)NC(=O)CCCCN)CSSC[C@@H](C(N)=O)NC(=O)[C@H](CO)NC(=O)[C@H](Cc2c[nH]c3ccccc23)NC(=O)[C@H](CO)NC(=O)CCNC(=O)[C@H](CCCNC(=N)N)NC(=O)[C@H](Cc2ccc(O)cc2)NC1=O | > 72 h
CNCC(=O)N[C@@H](Cc1ccc(O)cc1)C(=O)N[C@H]1CSSC[C@@H](C(N)=O)NC(=O)[C@H](CO)NC(=O)[C@H](Cc2c[nH]c3ccccc23)NC(=O)[C@H](CO)NC(=O)CCNC(=O)[C@H](CCCNC(=N)N)NC(=O)[C@H](Cc2ccc(O)cc2)NC(=O)[C@H](C(C)C)NC1=O | > 72 h

Attention now turns to another entry.
// half-life lookup, key: `CC(=O)N[C@@H](C)C(=O)N1CCC[C@H]1C(=O)N[C@@H](Cc1ccc(O)cc1)C(=O)N[C@H]1CSSC[C@@H](C(N)=O)NC(=O)[C@H](CO)NC(=O)[C@H](Cc2c[nH]c3ccccc23)NC(=O)[C@H](CO)NC(=O)CCNC(=O)[C@H](CCCNC(=N)N)NC(=O)[C@H](Cc2ccc(O)cc2)NC(=O)[C@H](C(C)C)NC1=O`
72 h
